experiment: Tmax in Sprague-Dawley rat at 2 mg/kg, iv administered as single dose; type: ADME, organism-based; settings: in vivo

- Compound Smiles: "COc1ccc2c(O[C@H]3CCN4C(=O)N(C)CCCCC=C[C@@H]5C[C@@]5(C(=O)NS(=O)(=O)C5(C)CC5)NC(=O)[C@@H]4C3)cc(-c3nc(C(F)(F)F)cs3)nc2c1C"
  Tmax (min): 4.8
- Compound Smiles: "COc1ccc2c(O[C@H]3C[C@H]4C(=O)N(C)CCCC/C=C/[C@@H]5C[C@@]5(C(=O)NS(=O)(=O)C5(C)CC5)NC(=O)N4C3)cc(-c3nc(C(F)(F)F)cs3)nc2c1C"
  Tmax (min): 4.8

Source listed as ChEMBL document CHEMBL3632591.
